Tested on: HSkMC (human skeletal muscle cells)
Assay: cytotoxicity call (relative viability < 0.9)
Details: 10 µM
Among all 39,000 compounds or so, about 1,500 (3.8%) were called active. Many of the other results were omitted from the sample, so actives are more common in it than they were.
Can you answer with just one of these options? true (1) = active, false (0) = inactive

Past entries and their recorded results:
[
  {
    "smilesRepr": "CCCCCCCCCCCCCCCCOP(=O)([O-])OCC[N+](C)(C)C",
    "discreteLabel": "false (0)"
  },
  {
    "smilesRepr": "COc1ccc(CN(C)C[C@@H]2OCCCC[C@@H](C)Oc3ccc(NC(=O)c4ccncc4)cc3C(=O)N([C@@H](C)CO)C[C@@H]2C)cc1",
    "discreteLabel": "false (0)"
  },
  {
    "smilesRepr": "CCCCCCCCCCCCCCCC[N+](C)(C)C",
    "discreteLabel": "true (1)"
  },
  {
    "smilesRepr": "CCOc1ccc2nc(C34CC5CC(CC(C5)C3)C4)ccc2c1",
    "discreteLabel": "false (0)"
  }
]

// next entry
Query string: Outcome? C[C@@H]1CCCCO[C@@H](CN(C)C(=O)Nc2ccc(C(F)(F)F)cc2)[C@@H](C)CN([C@H](C)CO)C(=O)c2cc(NC(=O)c3ccccc3)ccc2O1
Result string: false (0)
